target: Cholinesterases; ACHE & BCHE (Homo sapiens) (UniProt P06276+P22303); experiment: AChE selectivity = IC50(BChE) / IC50(AChE).; assay type: protein assay
With a cut-off of 40, any Selectivity strictly below it is called Criterion met; any Selectivity meeting it or above is called Criterion not met.

molecule	class-assignment
Cc1ccccc1NC(=O)Oc1ccc2c(c1)[C@]1(C)CCN(C)C1N2Cc1ccccc1 (stereo partly specified)	Criterion met
Cc1ccccc1NC(=O)Oc1ccc2c(c1)[C@]1(C)CCN(CCc3ccccc3)C1N2C (stereo partly specified)	Criterion met
Cc1ccccc1NC(=O)Oc1ccc2c(c1)[C@]1(C)CCN(C)C1N2 (stereo partly specified)	Criterion met
CN1CC[C@@]2(C)c3cc(OC(=O)Nc4ccccc4)ccc3N(C)C12 (stereo partly specified)	Criterion not met
Cc1ccccc1NC(=O)Oc1ccc2c(c1)[C@]1(C)CCNC1N2 (stereo partly specified)	Criterion met
Cc1ccccc1NC(=O)Oc1ccc2c(c1)[C@]1(C)CCNC1N2C (stereo partly specified)	Criterion not met

* * *

target: UniProtKB P22303
Sequence (P22303 whole entry): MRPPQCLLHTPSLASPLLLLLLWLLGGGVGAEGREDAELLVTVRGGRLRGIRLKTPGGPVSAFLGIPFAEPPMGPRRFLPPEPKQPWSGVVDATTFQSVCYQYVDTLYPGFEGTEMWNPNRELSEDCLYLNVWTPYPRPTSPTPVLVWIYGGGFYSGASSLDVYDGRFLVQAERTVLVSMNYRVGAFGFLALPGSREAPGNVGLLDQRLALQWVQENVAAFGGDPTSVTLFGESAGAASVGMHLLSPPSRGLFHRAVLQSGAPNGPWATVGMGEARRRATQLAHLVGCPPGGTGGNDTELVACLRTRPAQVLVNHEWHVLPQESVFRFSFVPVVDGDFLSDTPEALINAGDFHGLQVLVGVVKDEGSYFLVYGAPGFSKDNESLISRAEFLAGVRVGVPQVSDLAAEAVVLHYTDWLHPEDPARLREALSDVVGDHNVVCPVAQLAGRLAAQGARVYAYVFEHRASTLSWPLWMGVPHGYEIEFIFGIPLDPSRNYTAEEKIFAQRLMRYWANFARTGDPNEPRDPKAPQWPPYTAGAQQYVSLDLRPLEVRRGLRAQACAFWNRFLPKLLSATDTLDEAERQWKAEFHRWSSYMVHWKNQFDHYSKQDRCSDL
Threshold 300 nM. IC50 below it: true (1). IC50 at it or above: false (0).

molecule	measured-on	class-assignment
CC(C)c1ccc(NC(=O)Oc2ccc3c(c2)[C@]2(C)CCN(CCc4ccccc4)C2N3C)cc1 (stereo partly drawn)	UniProtKB P22303	false (0)
CC(C)c1ccc(NC(=O)Oc2ccc3c(c2)[C@]2(C)CCN(C)C2N3Cc2ccccc2)cc1 (stereo partly drawn)	UniProtKB P22303	false (0)
CC(C)c1ccc(NC(=O)Oc2ccc3c(c2)[C@]2(C)CCN(Cc4ccccc4)C2N3Cc2ccccc2)cc1 (stereo partly drawn)	UniProtKB P22303	false (0)
Cc1ccccc1NC(=O)Oc1ccc2c(c1)[C@]1(C)CCNC1N2 (stereo partly drawn)	UniProtKB P22303	true (1)
Cc1ccccc1NC(=O)Oc1ccc2c(c1)[C@]1(C)CCN(Cc3ccccc3)C1N2Cc1ccccc1 (stereo partly drawn)	UniProtKB P22303	false (0)
CC(C)c1ccc(NC(=O)Oc2ccc3c(c2)[C@]2(C)CCNC2N3C)cc1 (stereo partly drawn)	UniProtKB P22303	false (0)
Cc1ccccc1NC(=O)Oc1ccc2c(c1)[C@]1(C)CCN(C)C1N2Cc1ccccc1 (stereo partly drawn)	UniProtKB P22303	true (1)
Cc1ccccc1NC(=O)Oc1ccc2c(c1)[C@]1(C)CCN(C)C1N2C (stereo partly drawn)	UniProtKB P22303	true (1)
CC(C)c1ccc(NC(=O)Oc2ccc3c(c2)[C@]2(C)CCNC2N3)cc1 (stereo partly drawn)	UniProtKB P22303	true (1)
Cc1ccccc1NC(=O)Oc1ccc2c(c1)[C@]1(C)CCN(CCc3ccccc3)C1N2C (stereo partly drawn)	UniProtKB P22303	false (0)
Cc1ccccc1NC(=O)Oc1ccc2c(c1)[C@]1(C)CCNC1N2C (stereo partly drawn)	UniProtKB P22303	true (1)
Cc1ccccc1NC(=O)Oc1ccc2c(c1)[C@]1(C)CCN(C)C1N2 (stereo partly drawn)	UniProtKB P22303	true (1)
CC(C)c1ccc(NC(=O)Oc2ccc3c(c2)[C@]2(C)CCN(C)C2N3)cc1 (stereo partly drawn)	UniProtKB P22303	false (0)

* * *

target: Cholinesterases; ACHE & BCHE (Homo sapiens) (UniProt P06276+P22303); experiment: BChE selectivity = IC50(AChE) / IC50(BChE).; assay type: protein assay
Examples of molecules with documented Selectivity follow.

molecule	readout-relation	Selectivity
CC(C)c1ccc(NC(=O)Oc2ccc3c(c2)[C@]2(C)CCN(C)C2N3)cc1 (stereo partly specified)	=	26
CC(C)c1ccc(NC(=O)Oc2ccc3c(c2)[C@]2(C)CCNC2N3C)cc1 (stereo partly specified)	=	39
CC(C)c1ccc(NC(=O)Oc2ccc3c(c2)[C@]2(C)CCN(C)C2N3Cc2ccccc2)cc1 (stereo partly specified)	=	152
CC(C)c1ccc(NC(=O)Oc2ccc3c(c2)[C@]2(C)CCN(Cc4ccccc4)C2N3Cc2ccccc2)cc1 (stereo partly specified)	>	227
CC(C)c1ccc(NC(=O)Oc2ccc3c(c2)[C@]2(C)CCNC2N3)cc1 (stereo partly specified)	=	110
Cc1ccccc1NC(=O)Oc1ccc2c(c1)[C@]1(C)CCN(Cc3ccccc3)C1N2Cc1ccccc1 (stereo partly specified)	=	3

* * *

molecular target: Cholinesterase (Homo sapiens); assay: Ability to inhibit butyrylcholinesterase (BChE), freshly prepared from human plasma; type: cell-free
Sequence (P06276 whole entry): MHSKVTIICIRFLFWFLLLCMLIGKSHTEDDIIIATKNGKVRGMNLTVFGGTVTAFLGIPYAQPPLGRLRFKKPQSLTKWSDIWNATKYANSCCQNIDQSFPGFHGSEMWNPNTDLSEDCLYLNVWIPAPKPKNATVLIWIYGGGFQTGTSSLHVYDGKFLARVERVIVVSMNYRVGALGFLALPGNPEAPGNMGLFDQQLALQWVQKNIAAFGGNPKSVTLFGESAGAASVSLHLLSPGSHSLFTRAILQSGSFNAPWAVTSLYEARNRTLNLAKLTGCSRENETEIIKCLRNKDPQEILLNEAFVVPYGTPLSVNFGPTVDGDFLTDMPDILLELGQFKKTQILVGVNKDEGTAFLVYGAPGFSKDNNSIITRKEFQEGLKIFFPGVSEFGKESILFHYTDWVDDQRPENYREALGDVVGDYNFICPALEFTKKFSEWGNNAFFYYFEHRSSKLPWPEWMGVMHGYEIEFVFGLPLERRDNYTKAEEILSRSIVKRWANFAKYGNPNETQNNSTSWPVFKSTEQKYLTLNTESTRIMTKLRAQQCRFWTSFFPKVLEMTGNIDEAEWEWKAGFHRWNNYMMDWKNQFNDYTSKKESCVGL
pIC50: −log10 of the molar value.
# Lookup of reported pIC50 keyed by entry

compound	pIC50
Cc1ccccc1NC(=O)Oc1ccc2c(c1)[C@]1(C)CCNC1N2 (stereo partly drawn)	6.40
CC(C)c1ccc(NC(=O)Oc2ccc3c(c2)[C@]2(C)CCN(C)C2N3Cc2ccccc2)cc1 (stereo partly drawn)	7.07
Cc1ccccc1NC(=O)Oc1ccc2c(c1)[C@]1(C)CCN(C)C1N2Cc1ccccc1 (stereo partly drawn)	6.22

* * *

Parameter IC50: see the listing below.
molecular target: Cholinesterase (Homo sapiens); experiment: Ability to inhibit butyrylcholinesterase (BChE), freshly prepared from human plasma
recorded-endpoint: IC50 (nM)

compound	numeric-value
CC(C)c1ccc(NC(=O)Oc2ccc3c(c2)[C@]2(C)CCNC2N3)cc1 (some centres undefined)	1
CC(C)c1ccc(NC(=O)Oc2ccc3c(c2)[C@]2(C)CCN(C)C2N3)cc1 (some centres undefined)	78
CC(C)c1ccc(NC(=O)Oc2ccc3c(c2)[C@]2(C)CCN(Cc4ccccc4)C2N3Cc2ccccc2)cc1 (some centres undefined)	132
Cc1ccccc1NC(=O)Oc1ccc2c(c1)[C@]1(C)CCN(Cc3ccccc3)C1N2Cc1ccccc1 (some centres undefined)	641
Cc1ccccc1NC(=O)Oc1ccc2c(c1)[C@]1(C)CCNC1N2C (some centres undefined)	2170
Cc1ccccc1NC(=O)Oc1ccc2c(c1)[C@]1(C)CCN(CCc3ccccc3)C1N2C (some centres undefined)	1790
Cc1ccccc1NC(=O)Oc1ccc2c(c1)[C@]1(C)CCN(C)C1N2 (some centres undefined)	1430
CC(C)c1ccc(NC(=O)Oc2ccc3c(c2)[C@]2(C)CCN(CCc4ccccc4)C2N3C)cc1 (some centres undefined)	6
CC(C)c1ccc(NC(=O)Oc2ccc3c(c2)[C@]2(C)CCNC2N3C)cc1 (some centres undefined)	8.3
